# Test system: MCF7 breast
# Test protocol: NCI-60 one-dose screen, 48 h
# Run conditions: 10 µM unless noted
This is part of a sample that, as a whole, favours compounds with a hit. Of some 83,000 tested, about 20% had one in any assay. Activity calls are given as the source filed them. How the source made its calls: active means growth percent below 10; inactive means the rest.
Result category, one only: active, inactive

The examples below pair each entry with its known result.
{"columns": ["Molecule", "Cat"],
 "data": [
  ["O=C(c1ccc(Cl)cc1Cl)N1c2ccccc2Sc2ccccc21", "inactive"],
  ["COc1cc(/C=C\\c2cc(/C=C\\c3ccc(O)c(OC)c3)n(C(=O)CNc3ccc(Cl)cc3)n2)ccc1O", "inactive"],
  ["Cc1cc(N2CCN(C)CC2)nc(NCc2cc(Nc3ccnc4cc(Cl)ccc34)ccc2F)n1", "active"],
  ["C[Se]C(=O)CC1=C2C=C(F)C=CC2/C(=C\\c2ccc(S(C)=O)cc2)C1C (centres undefined)", "inactive"],
  ["Cc1nc2sc(C(=O)Nc3ccc(Cl)cc3)c(N)c2cc1C(O)c1ccccc1 (centres undefined)", "inactive"]
]}

Enquiry: What classification did `O=C(CCCCCCN1CC(=O)N2[C@@H](c3ccc(Cl)cc3)c3[nH]c4ccccc4c3C[C@H]2C1=O)NO` end up with in this test?
Return: inactive

Enquiry: What classification did `N#Cc1c(-c2ccccc2)cc(-c2ccccc2)n(CCCC(=O)NO)c1=O` end up with in this test?
Return: inactive

Enquiry: What classification did Cc1ccc(C)c2c1C(O)(C#Cc1ccccc1)c1ccccc1C2(O)C#Cc1ccccc1 (centres undefined) end up with in this test?
Return: inactive

Enquiry: What classification did CCn1cc(C(=O)N/N=C/c2ccc(Br)cc2)c(=O)c2cc(F)c(N3CCNC(C)C3)c(F)c21 (centres undefined) end up with in this test?
Return: active

Enquiry: What classification did `O=C(CCCCCCN1CC(=O)N2[C@@H](C3CCCCC3)c3[nH]c4ccccc4c3C[C@H]2C1=O)NO` end up with in this test?
Return: inactive

Enquiry: What classification did `C#CCOc1ccc2ncnc(Nc3cccc(NC(=O)CCl)c3)c2c1` end up with in this test?
Return: inactive

Enquiry: What classification did `O=C(CCCCCCCCC(=O)N/N=C\c1cc(Cl)ccc1O)N/N=C\c1cc(Cl)ccc1O` end up with in this test?
Return: inactive
